Test system: RSK3(Kin.Dom.1-N-terminal);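 further: KINOMEscan kinase panel screen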
Construct: gene RPS6KA2
Details: concentration: 1 μM, replicates: in singlicate; n = 1
METRIC NAME: %Inh (%)

INSERT INTO assay_data (compound, obs_value) VALUES
  ('O=C(Nc1n[nH]c2cc(-c3ccccc3F)ccc12)C1CC1', 0),
  ('COc1cc2ncn(-c3cc(OCc4ccncc4Br)c(C(N)=O)s3)c2cc1OC', 20),
  ('COc1cc2ncn(-c3cc(OCCCc4ccccc4)c(C(N)=O)s3)c2cc1OC', 0),
  ('COc1ccc(CNC(=O)NC2CCN(c3ccnc(Nc4ccc(F)cc4)n3)C2)cc1 (centres unmarked)', 15),
  ('COC(=O)c1c(-c2ccccc2)c2cc(C)ccc2c(=O)n1Cc1ccccc1', 15),
  ('CCc1ccc(-c2ccc3c(c2)-c2nn(C)cc2S(=O)(=O)N3C)cc1', 10),
  ('Fc1cccc(CSc2nnc(-c3ccc4c(c3)CCO4)o2)c1', 0),
  ('Cc1cc(Nc2nc(-c3cccc(C)n3)nc3ccccc23)ccn1', 0),
  ('COc1cccc(C2=C(N(C)c3ccccc3)C(=O)NC2=O)c1', 11),
  ('O=c1cc(N2CCOCC2)nc2n(Cc3ccc(F)c(Cl)c3)ccn12', 27),
  ('COc1ccc(Nc2nccc(N3CCC(NS(=O)(=O)c4ccc(NC(C)=O)cc4)C3)n2)cc1 (centres unmarked)', 6),
  ('COc1cc(OC)cc(-c2cc3cnc(N)nc3nc2NC(=O)NC(C)(C)C)c1', 0),
  ('COc1ccc(-n2cnc3c(N)ncnc32)cc1', 9),
  ('COC(=O)c1c(-c2ccccc2)c2cc(Br)ccc2c(=O)n1Cc1ccc(S(C)(=O)=O)cc1', 14),
  ('CCC(=O)c1c(-c2ccccc2)c2cc(Cl)ccc2c(=O)n1Cc1cc(S(C)(=O)=O)n(CCC(C)(C)O)n1', 11),
  ('Cc1nc(N(C)[C@H]2CN(C(=O)CC#N)CC[C@H]2C)c2cc[nH]c2n1', 12),
  ('Cc1ccc(Oc2ccc(Nc3ncnc4cc[nH]c34)cc2C)cn1', 16),
  ('CCCC(=O)Nc1n[nH]c2ncc(-c3cccc4ccccc34)cc12', 0),
  ('O=C(Nc1n[nH]c2nc(-c3ccccc3)c(Br)cc12)C1CC1', 0),
  ('Cl.NS(=O)(=O)c1cccc(Nc2cc(-c3ccc(F)cc3)n[nH]2)c1', 0),
  ('Cc1ccccc1COc1cc(-n2cnc3cc(Cl)ccc32)sc1C(N)=O', 5),
  ('Nc1ncnc2c1ncn2-c1ccc(Cl)cc1', 0),
  ('Cc1c(Cn2c(C)nn3c(=O)cc(N4CCO[C@H](C)C4)nc23)cccc1C(F)(F)F', 22),
  ('Nc1ncnc2c1ncn2-c1cccc(F)c1', 9),
  ('Cc1nn2c(=O)cc(N3CCOCC3)nc2n1Cc1cccc(Cl)c1Cl', 25),
  ('Cl.c1ccc(Cn2cnc3cc(Nc4ncnc5ccccc45)ccc32)cc1', 0),
  ('CCn1c(-c2nonc2N)nc2ccccc21', 4),
  ('CCC(=O)c1c(-c2ccccc2)c2cc(Cl)ccc2c(=O)n1Cc1cc(S(C)(=O)=O)n(CC(N)=O)n1', 1),
  ('Cc1cccc(-c2cc(-c3c[nH]nc3-c3ccccn3)ccn2)c1', 6),
  ('CCc1nc(-c2cccc(C)c2)c(-c2ccncc2)s1', 11),
  ('CCS(=O)c1ccc(-c2coc3ccc(-c4nnc(C)o4)cc23)cc1 (centres unmarked)', 3),
  ('C[C@@H]1CC[C@H](C(=O)NC2CCCCC2)CN1c1cc(-c2ccc3c(N)n[nH]c3c2)nc(N)n1', 23),
  ('COc1cc2nccc(Nc3ccc(OCc4ccc(NC(C)=O)cc4)cc3)c2cc1OC.Cl', 4),
  ('CN1C(=O)C(Nc2cc(Cl)c(O)c(Cl)c2)=C(c2ccc(Cl)cc2)C1=O', 0),
  ('COc1cc(Nc2ccnc3ccc(C(F)(F)F)cc23)cc(OC)c1OC', 4),
  ('Nc1n[nH]c2ncc(-c3ccccc3)cc12', 7),
  ('CCC(=O)c1c(-c2ccccc2)c2cc(Cl)ccc2c(=O)n1Cc1cc(S(C)(=O)=O)n(CC(F)F)n1', 0),
  ('COc1cccc(C2=C(Nc3cccc(C(=O)O)c3)C(=O)NC2=O)c1', 8);

The measured values listed here are drawn from paper PMC5540273.
